The reported numbers originate from patent US11186580B2.

# TGT: PI3Kγ (p110γ) Recombinant Human Protein (Homo sapiens (Human), UniProt P48736)
# Sequence (P48736 whole entry): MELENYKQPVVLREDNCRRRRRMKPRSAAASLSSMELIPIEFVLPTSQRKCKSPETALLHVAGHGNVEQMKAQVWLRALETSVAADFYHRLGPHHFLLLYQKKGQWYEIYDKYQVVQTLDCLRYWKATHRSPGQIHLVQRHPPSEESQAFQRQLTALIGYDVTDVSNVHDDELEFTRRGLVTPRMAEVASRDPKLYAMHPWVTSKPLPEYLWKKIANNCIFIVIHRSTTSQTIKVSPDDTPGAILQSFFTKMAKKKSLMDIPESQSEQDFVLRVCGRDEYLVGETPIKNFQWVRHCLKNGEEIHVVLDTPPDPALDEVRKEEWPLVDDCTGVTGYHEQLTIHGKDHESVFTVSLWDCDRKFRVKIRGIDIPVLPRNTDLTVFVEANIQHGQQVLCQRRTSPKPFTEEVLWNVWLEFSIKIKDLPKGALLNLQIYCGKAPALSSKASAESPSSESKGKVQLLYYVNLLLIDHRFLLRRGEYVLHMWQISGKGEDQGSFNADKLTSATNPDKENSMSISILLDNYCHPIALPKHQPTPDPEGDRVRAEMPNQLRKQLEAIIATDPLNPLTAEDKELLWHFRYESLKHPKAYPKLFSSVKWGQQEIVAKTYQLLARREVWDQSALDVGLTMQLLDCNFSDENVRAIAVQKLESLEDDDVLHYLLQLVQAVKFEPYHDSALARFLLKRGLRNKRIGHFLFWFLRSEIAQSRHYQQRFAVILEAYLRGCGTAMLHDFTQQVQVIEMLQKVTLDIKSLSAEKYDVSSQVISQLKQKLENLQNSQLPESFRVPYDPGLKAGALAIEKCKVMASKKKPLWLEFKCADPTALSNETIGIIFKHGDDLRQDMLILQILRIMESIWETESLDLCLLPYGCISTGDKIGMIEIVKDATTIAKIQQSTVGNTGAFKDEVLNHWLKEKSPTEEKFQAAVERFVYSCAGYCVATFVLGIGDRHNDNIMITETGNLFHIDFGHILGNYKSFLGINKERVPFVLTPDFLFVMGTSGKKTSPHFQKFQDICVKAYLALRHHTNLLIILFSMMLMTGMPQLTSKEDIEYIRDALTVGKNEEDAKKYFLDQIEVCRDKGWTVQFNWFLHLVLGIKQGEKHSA
# METHOD_NOTES: PI3K-γ Scintillation Proximity Assay
# COND: 2 μM ATP, 20 μM PIP2, 13 nM PI3Kγ
pIC50: −log10 of the molar value.
METRIC: pIC50

Can you look up the measured pIC50 of Cc1ccc(C(O)(C(N)=O)C(F)(F)F)cc1-c1cnc2c(N)nc(C(F)(F)F)cn12 (single isomer, unassigned) for me?
> 7.00

* * *

# TGT: PI3Kδ (p110δ/p85α) Recombinant Human Protein (Homo sapiens (Human), UniProt O00329)
# Sequence (O00329 whole entry): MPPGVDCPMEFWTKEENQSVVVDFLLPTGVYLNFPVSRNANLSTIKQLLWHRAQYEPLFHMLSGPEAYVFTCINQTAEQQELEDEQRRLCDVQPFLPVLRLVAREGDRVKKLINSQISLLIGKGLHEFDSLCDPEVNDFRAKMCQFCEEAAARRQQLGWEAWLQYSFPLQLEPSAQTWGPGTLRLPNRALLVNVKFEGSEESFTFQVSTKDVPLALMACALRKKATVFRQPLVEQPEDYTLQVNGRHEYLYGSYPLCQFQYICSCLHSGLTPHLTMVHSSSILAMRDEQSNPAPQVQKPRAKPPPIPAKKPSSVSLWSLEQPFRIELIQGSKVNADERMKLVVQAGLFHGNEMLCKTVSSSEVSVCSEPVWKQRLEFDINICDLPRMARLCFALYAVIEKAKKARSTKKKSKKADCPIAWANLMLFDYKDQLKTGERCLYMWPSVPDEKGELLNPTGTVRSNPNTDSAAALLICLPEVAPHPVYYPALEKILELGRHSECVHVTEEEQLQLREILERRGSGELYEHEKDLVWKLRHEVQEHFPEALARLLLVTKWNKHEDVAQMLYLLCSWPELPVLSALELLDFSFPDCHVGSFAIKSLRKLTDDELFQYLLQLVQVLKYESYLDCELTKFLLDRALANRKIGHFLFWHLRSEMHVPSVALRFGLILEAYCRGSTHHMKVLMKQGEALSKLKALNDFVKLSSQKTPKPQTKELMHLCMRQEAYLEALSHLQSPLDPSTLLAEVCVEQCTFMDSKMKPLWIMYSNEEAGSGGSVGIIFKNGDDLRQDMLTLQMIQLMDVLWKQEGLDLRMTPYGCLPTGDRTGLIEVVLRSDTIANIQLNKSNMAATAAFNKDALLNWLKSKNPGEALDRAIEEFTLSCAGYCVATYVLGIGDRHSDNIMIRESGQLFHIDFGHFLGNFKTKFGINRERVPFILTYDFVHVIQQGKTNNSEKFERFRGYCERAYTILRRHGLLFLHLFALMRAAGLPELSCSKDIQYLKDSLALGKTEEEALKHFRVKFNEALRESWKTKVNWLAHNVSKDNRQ
# Sequence (P27986 whole entry partner): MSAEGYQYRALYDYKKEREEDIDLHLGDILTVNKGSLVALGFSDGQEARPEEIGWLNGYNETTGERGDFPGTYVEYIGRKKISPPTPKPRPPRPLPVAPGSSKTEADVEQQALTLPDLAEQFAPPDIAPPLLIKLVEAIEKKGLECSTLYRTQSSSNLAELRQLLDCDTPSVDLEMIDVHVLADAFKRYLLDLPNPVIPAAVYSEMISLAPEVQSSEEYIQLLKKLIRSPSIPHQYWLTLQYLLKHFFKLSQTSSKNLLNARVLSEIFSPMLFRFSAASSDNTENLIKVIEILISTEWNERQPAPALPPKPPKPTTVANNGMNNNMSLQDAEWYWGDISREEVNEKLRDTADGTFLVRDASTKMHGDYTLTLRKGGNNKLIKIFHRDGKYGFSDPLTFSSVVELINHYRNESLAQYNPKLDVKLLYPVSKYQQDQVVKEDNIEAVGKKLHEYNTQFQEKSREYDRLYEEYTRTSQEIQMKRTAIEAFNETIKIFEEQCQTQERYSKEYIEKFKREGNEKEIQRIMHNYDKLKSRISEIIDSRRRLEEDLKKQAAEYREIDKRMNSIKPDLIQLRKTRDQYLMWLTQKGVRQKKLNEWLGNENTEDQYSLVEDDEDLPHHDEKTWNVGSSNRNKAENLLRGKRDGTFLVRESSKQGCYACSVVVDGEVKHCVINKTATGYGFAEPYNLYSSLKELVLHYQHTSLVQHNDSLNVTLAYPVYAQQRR
# METHOD_NOTES: PI3Kδ Scintillation Proximity Assay
# COND: 2 μM ATP, 20 μM PIP2, 3.4 nM PI3Kδ
# From the text: PI3Kδ Scintillation Proximity Assay [γ-^33P]ATP (10 mCi/mL) and Wheat Germ Agglutinin (WGA) YSi SPA Scintillation Beads was purchased from Perkin-Elmer (Waltham, Mass.). Lipid kinase substrate, D-myo-Phosphatidylinositol 4,5-bisphosphate (PtdIns(4,5)P2)D (+)-sn-1,2-di-O-octanoylglyceryl, 3-O-phospho linked (PIP2), CAS 204858-53-7, was purchased from Echelon Biosciences (Salt Lake City, Utah). PI3Kδ (p110δ/p85α) Recombinant Human Protein was purchased from Eurofins (St Charles, Mo.). […]
Assignment: determine reported IC50 for the given compounds.

Completed entries (count: 2):
[[record]]
compound = "Cc1ccc(C(C)(O)C(F)(F)F)cc1-c1cnc2c(N)nc(C(=O)NCC(C)(C)O)cn12 (single isomer, unassigned) [Example 5]"
tgt = "PI3Kδ (p110δ/p85α) Recombinant Human Protein (Homo sapiens (Human), UniProt O00329)"
metric = "IC50"
result = "< 500 nM"

[[record]]
compound = "Cc1ccc(C(O)(C(N)=O)C(F)(F)F)cc1-c1cnc2c(N)nc(C(F)(F)F)cn12 (single isomer, unassigned)"
tgt = "PI3Kδ (p110δ/p85α) Recombinant Human Protein (Homo sapiens (Human), UniProt O00329)"
metric = "IC50"
result = "< 100 nM"


As a next step, examine the compound that follows.
# input compound: Cc1ccc(C(C)(O)C(F)(F)F)cc1-c1cnc2c(N)nc(C(=O)NCC(C)(C)O)cn12 (single isomer, unassigned) [Example 6] ; wanted: its IC50
< 500 nM

* * *

# System: Phosphorylated Ribosomal Protein S6 (RPS6) in THP-1 cells (PI3Kγ)
# METHOD_NOTES: THP-1 RPS6 ELISA Assay
# Type: cell-based, Human
# COND: 10 nM MCP-1 for 15 minutes, Phospho-RPS6 ELISA, read-out: PI3Kγ_THP1_RPS6_ELISA IC50
# Protocol: To measure the Phosphorylated Ribosomal Protein S6 (RPS6) in cell lysates, THP-1 cells (Human Acute Monocytic Leukemia) are purchased from ATCC (Manassas, Va.) and maintained in RPMI with 10% FBS (Gibco/Life Technologies, Carlsbad, Calif.). […] The plate is measured using a microplate reader (SpectraMax M5—Molecular Devices, LLC Sunnyvale, Calif.) set to 450 nm with a wavelength correction of 540. […]
METRIC: IC50

Recorded IC50 for Cc1ccc(C(C)(O)C(F)(F)F)cc1-c1cnc2c(N)nc(C(=O)NCC(C)(C)O)cn12 (single isomer, unassigned) , please?
< 500 nM
